Below is a list of entries, each paired with its recorded pIC50 value.
Test system: RT-4
EXPERIMENT: Cytotoxicity against human RT4 cells after 92 hrs by microtiter assay
Assay type: functional, cell-based
CONDITIONS_USED: RT-4, 92 h
Remember the convention: pIC50 equals -log10 of concentration in molar.

LINE_NOTATION | ASSAYED_TARGET | OBSERVED_RESULT
COc1cccc2c(-c3ccc(C(=O)NCCN(C)C)cc3)c3[nH]c4c(OC)cccc4c3nc12 | RT-4 | 5.44

Continue with the next molecule.
input: For the molecule shown here, Cc1cccc2c(-c3ccc(C(=O)NCCN(C)C)cc3)c3[nH]c4c(C)cccc4c3nc12 , give the reported pIC50.
output: 5.38

meta.source: ChEMBL document CHEMBL1759985
